- tested.system: T1, EsCas13d, nuclease-dead (Eubacterium siraeum, UniProt B0MS50, R295A;H300A;R849A;H854A)
- T1 sequence: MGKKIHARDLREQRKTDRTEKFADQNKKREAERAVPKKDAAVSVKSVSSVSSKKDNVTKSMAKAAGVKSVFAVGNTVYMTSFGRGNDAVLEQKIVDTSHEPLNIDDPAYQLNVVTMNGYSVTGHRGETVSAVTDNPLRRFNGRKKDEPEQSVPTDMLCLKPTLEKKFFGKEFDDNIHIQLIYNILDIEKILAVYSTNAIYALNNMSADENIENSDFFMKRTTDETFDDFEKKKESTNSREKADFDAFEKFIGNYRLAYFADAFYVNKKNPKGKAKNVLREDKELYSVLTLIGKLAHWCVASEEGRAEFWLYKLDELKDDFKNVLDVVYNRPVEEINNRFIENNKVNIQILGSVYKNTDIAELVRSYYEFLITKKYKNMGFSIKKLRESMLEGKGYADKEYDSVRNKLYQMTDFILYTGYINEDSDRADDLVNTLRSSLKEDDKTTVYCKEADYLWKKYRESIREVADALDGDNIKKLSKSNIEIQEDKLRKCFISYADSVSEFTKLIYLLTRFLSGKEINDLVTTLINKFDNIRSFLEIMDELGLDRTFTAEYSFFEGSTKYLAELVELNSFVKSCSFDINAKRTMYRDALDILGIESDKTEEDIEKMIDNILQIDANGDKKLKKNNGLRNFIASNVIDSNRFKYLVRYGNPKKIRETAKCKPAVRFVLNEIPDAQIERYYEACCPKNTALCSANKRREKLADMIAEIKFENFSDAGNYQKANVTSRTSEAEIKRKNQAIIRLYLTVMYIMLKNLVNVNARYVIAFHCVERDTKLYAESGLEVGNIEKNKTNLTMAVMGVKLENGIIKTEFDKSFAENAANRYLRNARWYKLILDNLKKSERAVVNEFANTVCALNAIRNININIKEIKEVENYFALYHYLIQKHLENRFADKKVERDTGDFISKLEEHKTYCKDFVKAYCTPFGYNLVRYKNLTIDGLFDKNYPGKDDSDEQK
- experimental.protocol: crRNA (strand 1, pre-loaded); Mg2+; 40 mM Tris-HCl pH 7.5, 150 mM NaCl, 6 mM MgCl2, 1 mM DTT, 0.1% Tween-20, 0.2 mg/ml BSA; 25 C; 10 min per concentration, then washed
- test.context: tags: His6-TwinStrep-SUMO cleaved; N-terminal SNAP kept (SNAP-Surface 488); label: 3' end held by stalled T7 RNA polymerase
recorded.endpoint: pKd
API: returns pKd as number; meaning -log10 of concentration in mol/L.

Check out these entries, answers already filled in.
target 3 insC 3' of 12,insG 3' of 2 (mixed) RNA 1: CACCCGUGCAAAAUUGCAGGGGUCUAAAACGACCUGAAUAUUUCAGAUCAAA RNA 2: GGGAAUGGAUCCACAUCUACGAAUUCGUUUUUGAUCUGAACAUAUUCAGGUGCUGCAGAUCGGAAGAGCACACGU : 7.03
target 1 insC 3' of 14,insG 3' of 1 (mixed) RNA 1: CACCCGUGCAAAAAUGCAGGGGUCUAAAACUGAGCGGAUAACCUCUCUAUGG RNA 2: GGGAAUGGAUCCACAUCUACGAAUUCGUACCAUAGAGACGGUUAUCCGCUCAGCCGAGAUCGGAAGAGCACACGU : 7.30

Prompt: Param item = target 1 A1U,C4U (mixed) RNA 1: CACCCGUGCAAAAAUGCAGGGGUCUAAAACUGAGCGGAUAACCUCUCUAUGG RNA 2: GGGAAUGGAUCCACAUCUACGAAUUCGUACCAUAGAGAGGUUAUCCGUUCUCCGAGAUCGGAAGAGCACACGU ; retrieve measured pKd.
Completion: 7.89

Prompt: Param item = target 1 insG 3' of 7,insG 3' of 3 (mixed) RNA 1: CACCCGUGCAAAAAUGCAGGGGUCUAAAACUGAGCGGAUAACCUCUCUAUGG RNA 2: GGGAAUGGAUCCACAUCUACGAAUUCGUACCAUAGAGAGGUUAUCGCGCUGCACCGAGAUCGGAAGAGCACACGU ; retrieve measured pKd.
Completion: 8.27

Prompt: Param item = target 1 insA 3' of 22,insA 3' of 11 (mixed) RNA 1: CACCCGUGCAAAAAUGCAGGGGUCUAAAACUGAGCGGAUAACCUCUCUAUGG RNA 2: GGGAAUGGAUCCACAUCUACGAAUUCGUACACAUAGAGAGGUAUAUCCGCUCACCGAGAUCGGAAGAGCACACGU ; retrieve measured pKd.
Completion: 7.75

Prompt: Param item = target 3 insC 3' of 4,insU 3' of 4 (mixed) RNA 1: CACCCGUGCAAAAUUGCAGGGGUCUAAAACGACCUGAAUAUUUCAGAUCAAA RNA 2: GGGAAUGGAUCCACAUCUACGAAUUCGUUUUUGAUCUGAAAUAUUCAGCUGUCUGCAGAUCGGAAGAGCACACGU ; retrieve measured pKd.
Completion: 7.60

Prompt: Param item = target 1 insA 3' of 3,insA 3' of 2 (mixed) RNA 1: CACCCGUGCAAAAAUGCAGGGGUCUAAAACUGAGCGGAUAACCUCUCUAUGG RNA 2: GGGAAUGGAUCCACAUCUACGAAUUCGUACCAUAGAGAGGUUAUCCGCUACAACCGAGAUCGGAAGAGCACACGU ; retrieve measured pKd.
Completion: 8.15

Prompt: Param item = target 2 MT 5'PFS AUC 3'PFS CAG (mixed) RNA 1: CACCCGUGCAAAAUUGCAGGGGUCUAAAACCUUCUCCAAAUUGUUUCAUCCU RNA 2: GGGAAUGGAUCCACAUCUACGAAUUCAUCAGGAUGAAACAAUUUGGAGAAGCAGAGAUCGGAAGAGCACACGU ; retrieve measured pKd.
Completion: 7.10
